Examples of molecules with documented AUC follow.
Experiment: Area under curve was determined in rat after PO administration
Format: ADME, organism-based
Parameters: concentration or dose not given beside the values
Settings: in vivo
Report the value in µM·h with no unit label.

>  <smi>
O=C1NCc2c(-c3ccc(F)cc3F)cc(C3CCNCC3)cc2N1c1c(Cl)cccc1Cl

>  <reported-result>
0.02

$$$$
>  <smi>
CN1CCC(c2cc(-c3ccc(F)cc3Cl)c3c(c2)N(c2c(Cl)cccc2Cl)C(=O)NC3)CC1

>  <reported-result>
0.06

$$$$
>  <smi>
O=C1NCc2c(-c3ccc(F)cc3Cl)cc(C3CCN(C4CCC4)CC3)cc2N1c1c(Cl)cccc1Cl

>  <reported-result>
0.14

$$$$
>  <smi>
O=C1NCc2c(-c3ccc(F)cc3Cl)cc(C3CCN(CC4CCC4)CC3)cc2N1c1c(Cl)cccc1Cl

>  <reported-result>
0.14

$$$$

Moving on to another molecule below.
# input molecule: O=C1NCc2c(-c3ccc(F)cc3Cl)cc(C3CCN(C4CC4)CC3)cc2N1c1c(Cl)cccc1Cl ; wanted: its AUC
0.39

* * *

Assay: Plasma clearance in rat
Type: ADME, organism-based
Conditions: read-out: Clp
measurement-type: clearance (mL/min/kg)
Use mL/min/kg as the unit, but write only the number.

Previously resolved entries follow.
>  <compound>
CC(C1CC1)N1CCC(c2cc(-c3ccc(F)cc3Cl)c3c(c2)N(c2c(Cl)cccc2Cl)C(=O)NC3)CC1 (configuration not stated)

>  <clearance / mL/min/kg>
31.1

$$$$
>  <compound>
O=C1NCc2c(-c3ccccc3Cl)cc(OC3CCNCC3)cc2N1c1c(Cl)cccc1Cl

>  <clearance / mL/min/kg>
116

$$$$
>  <compound>
O=C1NCc2c(-c3ccc(F)cc3Cl)cc(C3CCN(CC4CC4)CC3)cc2N1c1c(Cl)cccc1Cl

>  <clearance / mL/min/kg>
50.9

$$$$
>  <compound>
CCN1CCC(c2cc(-c3ccc(F)cc3Cl)c3c(c2)N(c2c(Cl)cccc2Cl)C(=O)NC3)CC1

>  <clearance / mL/min/kg>
56.3

$$$$
>  <compound>
O=C1NCc2c(-c3ccc(F)cc3Cl)cc(C3CCN(CC4CCC4)CC3)cc2N1c1c(Cl)cccc1Cl

>  <clearance / mL/min/kg>
24.2

$$$$
>  <compound>
O=C1NCc2c(-c3ccc(F)cc3Cl)cc(C3CCNCC3)cc2N1c1c(Cl)cccc1Cl

>  <clearance / mL/min/kg>
72.3

$$$$

We next turn to a different compound, shown below.
For O=C1NCc2c(-c3ccccc3Cl)cc(C3CCNCC3)cc2N1c1c(Cl)cccc1Cl , what is its reported clearance?
181

* * *

Experiment: Volume distribution in rat
Assay type: ADME, organism-based
Conditions: in vivo
Decision: Vd beneath 8 L/kg gives Fulfilled; Vd meeting or exceeding 8 L/kg gives Not fulfilled.

Worked examples follow.
>  <molecule>
CN1CCC(c2cc(-c3ccc(F)cc3Cl)c3c(c2)N(c2c(Cl)cccc2Cl)C(=O)NC3)CC1

>  <cat>
Fulfilled

$$$$
>  <molecule>
O=C1NCc2c(-c3ccc(F)cc3Cl)cc(CN3CCNCC3)cc2N1c1c(Cl)cccc1Cl

>  <cat>
Not fulfilled

$$$$

Report whether reported Vd is lower than 8 L/kg (strictly) for O=C1NCc2c(-c3ccccc3Cl)cc(N3CCNCC3)cc2N1c1c(Cl)cccc1Cl
Fulfilled

Vd under 8 L/kg? Item: CC(C)(C)N1CCC(c2cc(-c3ccc(F)cc3Cl)c3c(c2)N(c2c(Cl)cccc2Cl)C(=O)NC3)CC1
Fulfilled

Vd strictly < 8 L/kg for this molecule? O=C1NCc2c(-c3ccccc3Cl)cc(C3CCNCC3)cc2N1c1c(Cl)cccc1Cl
Not fulfilled

Record O=C1NCc2c(-c3ccc(F)cc3Cl)cc(C3CCN(CC4CC4)CC3)cc2N1c1c(Cl)cccc1Cl : is its Vd strictly below 8 L/kg?
Fulfilled

* * *

Experiment: Plasma clearance in rat
Format: ADME, organism-based
Settings: read-out: Clp
measurement-type: clearance (mL/min/kg)
Reply with just the number (in mL/min/kg).

>  <smi>
O=C1NCc2c(-c3ccccc3Cl)cc(N3CCNCC3)cc2N1c1c(Cl)cccc1Cl

>  <clearance [mL/min/kg]>
34.4

$$$$
>  <smi>
O=C(c1cc(-c2ccc(F)cc2F)c2c(c1)N(c1c(Cl)cccc1Cl)C(=O)NC2)N1CCNCC1

>  <clearance [mL/min/kg]>
94.7

$$$$
>  <smi>
CC(C)N1CCC(c2cc(-c3ccc(F)cc3Cl)c3c(c2)N(c2c(Cl)cccc2Cl)C(=O)NC3)CC1

>  <clearance [mL/min/kg]>
84.8

$$$$
>  <smi>
O=C1NCc2c(-c3ccc(F)cc3Cl)cc(C3CCN(C4CCC4)CC3)cc2N1c1c(Cl)cccc1Cl

>  <clearance [mL/min/kg]>
53.7

$$$$
>  <smi>
O=C1NCc2c(-c3ccc(F)cc3F)cc(C3CCNCC3)cc2N1c1c(Cl)cccc1Cl

>  <clearance [mL/min/kg]>
58.6

$$$$
>  <smi>
CC(C)(C)N1CCC(c2cc(-c3ccc(F)cc3Cl)c3c(c2)N(c2c(Cl)cccc2Cl)C(=O)NC3)CC1

>  <clearance [mL/min/kg]>
35.2

$$$$
>  <smi>
O=C1NCc2c(-c3ccc(F)cc3Cl)cc(CN3CCNCC3)cc2N1c1c(Cl)cccc1Cl

>  <clearance [mL/min/kg]>
140

$$$$
>  <smi>
CN1CCC(c2cc(-c3ccc(F)cc3Cl)c3c(c2)N(c2c(Cl)cccc2Cl)C(=O)NC3)CC1

>  <clearance [mL/min/kg]>
49.8

$$$$

Alright, here's another compound for you.
Any idea what clearance was measured for O=C1NCc2c(-c3ccc(F)cc3Cl)cc(C3CCN(C4CC4)CC3)cc2N1c1c(Cl)cccc1Cl ?
51.7

* * *

Experiment: Oral bioavailability in rat
Type: ADME, organism-based
Conditions: in vivo
Please assign a class to every record based on measured bioavailability, with ranges interval 1 (below 9%), interval 2 (9% to below 20%), interval 3 (20% or more)

>  <compound>
O=C1NCc2c(-c3ccccc3Cl)cc(OC3CCNCC3)cc2N1c1c(Cl)cccc1Cl

>  <cat>
interval 1

$$$$
>  <compound>
O=C1NCc2c(-c3ccc(F)cc3Cl)cc(C3CCNCC3)cc2N1c1c(Cl)cccc1Cl

>  <cat>
interval 1

$$$$
>  <compound>
O=C1NCc2c(-c3ccc(F)cc3Cl)cc(C3CCN(C4CCC4)CC3)cc2N1c1c(Cl)cccc1Cl

>  <cat>
interval 3

$$$$

// return the class label for CC(C1CC1)N1CCC(c2cc(-c3ccc(F)cc3Cl)c3c(c2)N(c2c(Cl)cccc2Cl)C(=O)NC3)CC1 (stereo unspecified)
interval 3

Assign a category based on measured bioavailability for O=C(c1cc(-c2ccc(F)cc2F)c2c(c1)N(c1c(Cl)cccc1Cl)C(=O)NC2)N1CCNCC1 and give only the class name.
interval 1

Determine which band this compound sits in: CC(C)N1CCC(c2cc(-c3ccc(F)cc3Cl)c3c(c2)N(c2c(Cl)cccc2Cl)C(=O)NC3)CC1
interval 2

* * *

Experiment: Volume distribution in rat
Assay type: ADME, organism-based
Details: in vivo
Outcome label depends on Vd relative to 8 L/kg: at/above gives True, below gives False.

Example entries and their recorded answers appear below.
>  <compound>
CCN1CCC(c2cc(-c3ccc(F)cc3Cl)c3c(c2)N(c2c(Cl)cccc2Cl)C(=O)NC3)CC1

>  <cat>
False

$$$$
>  <compound>
O=C1NCc2c(-c3ccc(F)cc3F)cc(C3CCNCC3)cc2N1c1c(Cl)cccc1Cl

>  <cat>
True

$$$$
>  <compound>
O=C1NCc2c(-c3ccc(F)cc3Cl)cc(C3CCN(CC4CCC4)CC3)cc2N1c1c(Cl)cccc1Cl

>  <cat>
False

$$$$
>  <compound>
O=C1NCc2c(-c3ccccc3Cl)cc(OC3CCNCC3)cc2N1c1c(Cl)cccc1Cl

>  <cat>
True

$$$$
>  <compound>
CC(C1CC1)N1CCC(c2cc(-c3ccc(F)cc3Cl)c3c(c2)N(c2c(Cl)cccc2Cl)C(=O)NC3)CC1 (stereo not given)

>  <cat>
False

$$$$

Entry O=C(c1cc(-c2ccc(F)cc2F)c2c(c1)N(c1c(Cl)cccc1Cl)C(=O)NC2)N1CCNCC1 : is its Vd no less than 8 L/kg?
True

Given the entry O=C1NCc2c(-c3ccc(F)cc3Cl)cc(C3CCN(C4CCC4)CC3)cc2N1c1c(Cl)cccc1Cl , answer whether its Vd meets or surpasses 8 L/kg.
False

Test whether the compound CC(C)N1CCC(c2cc(-c3ccc(F)cc3Cl)c3c(c2)N(c2c(Cl)cccc2Cl)C(=O)NC3)CC1 records Vd of 8 L/kg or higher.
True

* * *

Assay: Oral bioavailability in rat
Type: ADME, organism-based
Details: in vivo
# binarize bioavailability: threshold 10% inclusive, high side condition met, low side condition not met

Record excerpt, results attached:
>  <smi>
CN1CCC(c2cc(-c3ccc(F)cc3Cl)c3c(c2)N(c2c(Cl)cccc2Cl)C(=O)NC3)CC1

>  <cat>
condition not met

$$$$
>  <smi>
O=C1NCc2c(-c3ccccc3Cl)cc(C3CCNCC3)cc2N1c1c(Cl)cccc1Cl

>  <cat>
condition not met

$$$$
>  <smi>
O=C1NCc2c(-c3ccc(F)cc3Cl)cc(C3CCN(CC4CC4)CC3)cc2N1c1c(Cl)cccc1Cl

>  <cat>
condition met

$$$$
>  <smi>
O=C1NCc2c(-c3ccccc3Cl)cc(N3CCNCC3)cc2N1c1c(Cl)cccc1Cl

>  <cat>
condition met

$$$$
>  <smi>
O=C1NCc2c(-c3ccc(F)cc3Cl)cc(C3CCN(CC4CCC4)CC3)cc2N1c1c(Cl)cccc1Cl

>  <cat>
condition met

$$$$
>  <smi>
CC(C)(C)N1CCC(c2cc(-c3ccc(F)cc3Cl)c3c(c2)N(c2c(Cl)cccc2Cl)C(=O)NC3)CC1

>  <cat>
condition met

$$$$

Evaluate O=C1NCc2c(-c3ccc(F)cc3Cl)cc(CN3CCNCC3)cc2N1c1c(Cl)cccc1Cl : bioavailability at minimum 10%?
condition met

Check the entry O=C1NCc2c(-c3ccc(F)cc3F)cc(C3CCNCC3)cc2N1c1c(Cl)cccc1Cl : does bioavailability equal or exceed 10%?
condition not met

Quick check: does O=C1NCc2c(-c3ccc(F)cc3Cl)cc(C3CCN(C4CC4)CC3)cc2N1c1c(Cl)cccc1Cl have bioavailability greater than or equal to 10%?
condition met

Would you say CCN1CCC(c2cc(-c3ccc(F)cc3Cl)c3c(c2)N(c2c(Cl)cccc2Cl)C(=O)NC3)CC1 shows bioavailability at minimum 10%?
condition met
